- measured-target: CDK4 (Homo sapiens)
- Construct: endogenous in cells
- Sequence (P11802 whole entry): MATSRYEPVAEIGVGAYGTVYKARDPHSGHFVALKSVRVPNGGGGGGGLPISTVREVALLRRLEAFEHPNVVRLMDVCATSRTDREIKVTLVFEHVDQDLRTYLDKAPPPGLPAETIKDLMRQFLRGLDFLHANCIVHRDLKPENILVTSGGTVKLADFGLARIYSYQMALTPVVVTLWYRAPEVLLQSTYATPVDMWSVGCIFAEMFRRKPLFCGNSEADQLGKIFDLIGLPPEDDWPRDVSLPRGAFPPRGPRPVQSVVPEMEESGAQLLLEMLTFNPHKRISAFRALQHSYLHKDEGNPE
- test-details: CDK4 degradation (DC50, Dmax)
- Type: cell-based
Recorded DC50 values for a group of compounds are listed next.

# compound, DC50
rows = [
    ("CC(=O)c1c(C)c2cnc(Nc3ccc(C4CCN(CC5CN(c6ccc7c(c6)CN(C6CCC(=O)NC6=O)C7=O)C5)CC4)cn3)nc2n(C2CCCC2)c1=O (centres unmarked)", "< 50 nM"),
    ("CC(=O)c1c(C)c2cnc(Nc3ccc(N4CCN(CCCCN(C)c5ccc6c(c5)C(=O)N(C5CCC(=O)NC5=O)C6=O)CC4)cn3)nc2n(C2CCCC2)c1=O (centres unmarked)", "50 to 200 nM"),
    ("CC(=O)c1c(C)c2cnc(Nc3ccc(N4CCN(CC5CCN(C(=O)N6CCC(CCN7CCN(c8ccc9c(c8)C(=O)N(C8CCC(=O)NC8=O)C9=O)CC7)CC6)CC5)CC4)cn3)nc2n(C2CCCC2)c1=O (centres unmarked)", "> 200 nM"),
    ("CC(=O)c1c(C)c2cnc(Nc3ccc(N4CCN(C(=O)N5CCN(CCN6CCN(c7ccc8c(c7)C(=O)N(C7CCC(=O)NC7=O)C8=O)CC6)CC5)CC4)cn3)nc2n(C2CCCC2)c1=O (centres unmarked)", "50 to 200 nM"),
    ("Cc1nc2c(F)cc(-c3nc(Nc4ccc(CN5CCN(C(=O)C6CN(c7ccc8c(c7)CN(C7CCC(=O)NC7=O)C8=O)C6)CC5)cn4)ncc3F)cc2n1C(C)C (centres unmarked)", "50 to 200 nM"),
]

The measurements presented in this section are drawn from patent US20230295118A1.
